# Test system: T1, human cANGPTL4 (C-terminal fragment of Angiopoietin-like 4 protein) (human, UniProt Q9BY76 186-406, limits assumed)
# T1 construct: domain: C-terminal fragment (cANGPTL4); Purified cANGPTL4 was immobilised by amine coupling on the CM5 chip for SPR and on carboxylated microwell plates for ELISA; also called purified cANGPTL4; human cANGPTL4 antigen
# T1 sequence (looked up): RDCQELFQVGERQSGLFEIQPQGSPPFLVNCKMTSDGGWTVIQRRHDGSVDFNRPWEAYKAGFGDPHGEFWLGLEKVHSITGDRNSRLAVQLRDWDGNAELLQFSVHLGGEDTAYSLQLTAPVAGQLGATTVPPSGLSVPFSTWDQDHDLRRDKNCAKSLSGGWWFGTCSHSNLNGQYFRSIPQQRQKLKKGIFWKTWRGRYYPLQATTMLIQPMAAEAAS
# Test protocol: SPR (BIACORE 3000), cANGPTL4 amine-coupled to CM5 chip, antibody as analyte
Experimental endpoint: koff (s⁻¹)

• Antuzumab 1 (antibody, V domains shown, Humanized monoclonal antibody made in CHO cells; also called ANG49; ANGH3 + ANGK3) VH: QVTLKESGPTLVKPTQTLTLTCTFSGFSLSTSGMGVGWIRQPPGKALEWLAHIWWDDDKYYNPSLKSRLTISKDTSKNQVVLTMTNMDPVDTATYYCARKDYGSSYDYWGQGTTVTVSS VL: DIVMTQSPLSLPVTPGEPASISCKASQSVDYDGDSYLNWYLQKPGQSPRLLIYTASNLESGVPDRFSGSGSGTDFTLKISRVEAEDVGVYYCFQSNEDPWTFGQGTKLEIK = 0.000693
• Antuzumab 3 (antibody, V domains shown, Humanized monoclonal antibody made in CHO cells; also called ANG27; ANGH1 + ANGK1) VH: QITLKESGPTLVKPTQTLTLTCTFSGFSLSTSGMGVGWIRQPPGKALEWLAHIWWDDDKYYNPSLKSRLTITKDTSKNQVVLTMTNMDPVDTATYYCARKDYGSSYDYWGQGTLVTVSS VL: DIVMTQSPDSLAVSLGERATINCKASQSVDYDGDSYLNWYQQKPGQPPKLLIYTASNLESGVPDRFSGSGSGTDFTLTISSLQAEDVAVYYCQQSNEDPWTFGQGTKVEIK = 0.000948
• murine monoclonal antibody mAb11F6C4 (antibody, V domains shown, Murine monoclonal antibody, the parent of the humanized antibodies; also called Control 11F6C4; original mouse-derived mAb) VH: QITLKESGPGILKPSQTLSLTCSFSGFSLSTSGMGVGWIRQPSGKGLEWLAHIWWDDDKYYNPSLKSQLTISKDTSRNQVFLKITSVDTADTATYYCARKDYGSSYDYWGQGTTLTVSS VL: DIVLTQSPASLAVSLGQRATISCKASQSVDYDGDSYLNWFQQKPGQPPKLLIYTASNLESGIPARFSGSGSGTDFTLNIHPVEEEDAATYYCQQSNEDPWTFGGGTTLEIK = 0.000905

Source of measurements: patent US20230090156A1
